inhibition of growth at 10 µM values by entry
# Test system: NCI-H226
# procedureText: Growth inhibition of human NCI-H226 cells at 10 uM after 48 hrs by SRB assay relative to control
# Format: functional
# experimentalSetup: NCI-H226, 48 h, read-out: GI
Value expressed in %; do not type the unit.

For orientation, consider the following solved cases.
smilesNotation	inhibition of growth at 10 µM (%)
COc1cccc(C(=O)Nc2cccc(-c3cc(=O)c4c(O)c(OC)c(OC)cc4o3)c2)c1	36.3
COc1ccc(NC(=O)c2cccc(-c3cc(=O)c4c(OC)c(OC)c(OC)cc4o3)c2)cc1	18.5
COc1cc2oc(-c3cccc(C(=O)Nc4ccccc4)c3)cc(=O)c2c(O)c1OC	26.8
COc1cccc(C(=O)Nc2cccc(-c3cc(=O)c4c(OC)c(OC)c(OC)cc4o3)c2)c1	28
COc1cc2oc(-c3cccc(C(=O)Nc4ccc5c(c4)OCO5)c3)cc(=O)c2c(OC)c1OC	21.2

Req: Could you share what inhibition of growth at 10 µM was measured for COc1ccccc1NC(=O)c1cccc(-c2cc(=O)c3c(O)c(OC)c(OC)cc3o2)c1 , tested on NCI-H226?
Resp: 23.9

Data credit: ChEMBL document CHEMBL4325889
